Experiment: DRUGMATRIX: Calcium Channel Type L, Phenylalkylamine radioligand binding (ligand: [3H] (-)-Desmethoxyverapamil (D-888))
Assay type: cell membranes, Rattus norvegicus, Wistar, Brain, Membrane
Details: Not Active = under 50% inhibition at 10 µM; read-out: Ki
Give measured pKi for each item. Keep answers brief.
Numbers only, as −log10 of the molar value.

Example entries begin here.
molecule | pKi
COc1ccccc1OCCNCC(O)COc1cccc2[nH]c3ccccc3c12 (stereo unspecified) [CARVEDILOL] | 6.42
Cc1cc(C(C)(C)C)c(O)c(C)c1CC1=NCCN1 [OXYMETAZOLINE] | 5.66
CC(CN1c2ccccc2Sc2ccccc21)N(C)C (stereo unspecified) [PROMETHAZINE] | 6.07
CC#C[C@]1(O)CC[C@H]2[C@@H]3CCC4=CC(=O)CCC4=C3[C@@H](c3ccc(N(C)C)cc3)C[C@@]21C [MIFEPRISTONE] | 4.81

Field: pKi. Fill in for each record below.
1. CC(N)Cc1c[nH]c2ccc(OCc3cccs3)cc12 (stereo unspecified) [BW-723C86]
2. CN1C[C@H](CNC(=O)OCc2ccccc2)C[C@@H]2c3cccc4c3c(cn4C)C[C@H]21 [METERGOLINE]

1: 5.37; 2: 6.57

* * *

Experiment: DRUGMATRIX: Glutamate, NMDA, Agonism radioligand binding (ligand: [3H] CGP-39653)
Format: cell membranes, Rattus norvegicus, Wistar, Cerebral cortex, Membrane
Conditions: Not Active = under 50% inhibition at 10 µM
measured.metric: Ki

compound | Ki
CC(C)NCC(O)COc1ccc(CC(N)=O)cc1 (stereo not given) [ATENOLOL] | Not Active
CO[C@@]12[C@H](COC(N)=O)C3=C(C(=O)C(C)=C(N)C3=O)N1C[C@@H]1N[C@@H]12 [MITOMYCIN] | Not Active
Cc1[nH]c(=O)c(C#N)cc1-c1ccncc1 [MILRINONE] | Not Active
CC1(COc2ccc(CC3SC(=O)NC3=O)cc2)CCCCC1 (stereo not given) [CIGLITAZONE] | Not Active

Please find the next compound below.
Please give the measured Ki for this compound: CS(=O)(=O)c1ccc(C2=C(c3ccccc3)C(=O)OC2)cc1 [ROFECOXIB]
Not Active

* * *

Molecular target: UniProtKB P33261
Sequence (P33261 whole entry): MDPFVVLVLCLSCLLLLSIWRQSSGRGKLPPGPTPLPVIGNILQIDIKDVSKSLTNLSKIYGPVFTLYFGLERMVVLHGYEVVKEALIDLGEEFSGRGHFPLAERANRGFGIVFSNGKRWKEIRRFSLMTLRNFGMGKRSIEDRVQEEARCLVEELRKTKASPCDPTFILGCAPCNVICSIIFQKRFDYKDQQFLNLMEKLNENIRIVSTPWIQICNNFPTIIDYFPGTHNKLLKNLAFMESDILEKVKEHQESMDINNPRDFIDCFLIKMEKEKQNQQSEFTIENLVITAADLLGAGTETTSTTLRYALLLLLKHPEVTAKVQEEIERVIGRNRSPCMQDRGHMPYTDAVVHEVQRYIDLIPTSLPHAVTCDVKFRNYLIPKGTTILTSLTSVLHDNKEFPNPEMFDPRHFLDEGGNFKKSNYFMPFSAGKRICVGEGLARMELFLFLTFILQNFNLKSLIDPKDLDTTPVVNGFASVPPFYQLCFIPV
Conditions: bti-tn-5b1-4
measured.metric: Ki

Example entries begin here.
compound | Ki
CN(CCOc1ccc(C[C@H](Nc2ccccc2C(=O)c2ccccc2)C(=O)O)cc1)c1ccccn1 | Not Active
O=C(O)COC(=O)Cc1ccccc1Nc1c(Cl)cccc1Cl | Not Active
CC#C[C@]1(O)CC[C@H]2[C@@H]3CCC4=CC(=O)CCC4=C3[C@@H](c3ccc(N(C)C)cc3)C[C@@]21C | Not Active
c1ccc2c(c1)Nc1ccccc1S2 | Not Active
CC1(C)[C@H](C(=O)O)N2C(=O)C[C@H]2S1(=O)=O | Not Active

Field: Ki. Fill in for each record below.
1. C[N+]1(C)[C@@H]2C[C@@H](OC(=O)[C@H](CO)c3ccccc3)C[C@H]1[C@@H]1O[C@@H]12.[Br-] [METHSCOPOLAMINE BROMIDE]
2. C=CCO
3. CC[C@@]1(O)C(=O)OCc2c1cc1n(c2=O)Cc2cc3c(CN(C)C)c(O)ccc3nc2-1

Not Active
Not Active
Not Active
